Provide the recorded MIC for the entries that follow.
System: Enterococcus faecalis
experimental.protocol: Antibacterial activity against vancomycin-resistant and teichoplanin-susceptible Enterococcus faecalis clinical isolate by broth microdilution method
Type: functional
Give the value, in units of µg/mL, as a plain number.

(Q) Form field: reported MIC of `CCCCCCCCCCNCCN[C@@]1(C)C[C@H](O[C@H]2[C@H](Oc3c4cc5cc3Oc3ccc(cc3Cl)[C@@H](O)[C@@H](NC(=O)[C@@H](CC(C)C)NC)C(=O)N[C@@H](CC(N)=O)C(=O)N[C@H]5C(=O)N[C@H]3C(=O)N[C@H](C(=O)N[C@H](C(=O)O)c5cc(O)c(CNCP(=O)(O)O)c(O)c5-c5cc3ccc5O)[C@H](O)c3ccc(c(Cl)c3)O4)O[C@H](CO)[C@@H](O)[C@@H]2O)O[C@@H](C)[C@H]1O`
(A) 0.25

(Q) What would you report for `CN[C@H](CC(C)C)C(=O)N[C@H]1C(=O)N[C@@H](CC(N)=O)C(=O)N[C@H]2C(=O)N[C@H]3C(=O)N[C@H](C(=O)N[C@H](C(=O)O)c4cc(O)cc(O)c4-c4cc3ccc4O)[C@H](O)c3ccc(c(Cl)c3)Oc3cc2cc(c3O[C@@H]2O[C@H](CO)[C@@H](O)[C@H](O)[C@H]2O[C@H]2C[C@](C)(N)[C@H](O)[C@H](C)O2)Oc2ccc(cc2Cl)[C@H]1O` ?
(A) 32

(Q) What would you report for `CCCCCCCCCC(=O)N[C@@H](Cc1c[nH]c2ccccc12)C(=O)N[C@H](CC(N)=O)C(=O)N[C@@H](CC(=O)O)C(=O)N[C@@H]1C(=O)NCC(=O)N[C@@H](CCCN)C(=O)N[C@@H](CC(=O)O)C(=O)N[C@H](C)C(=O)N[C@@H](CC(=O)O)C(=O)NCC(=O)N[C@H](CO)C(=O)N[C@@H]([C@H](C)CC(=O)O)C(=O)N[C@@H](CC(=O)c2ccccc2N)C(=O)O[C@@H]1C` ?
(A) 0.5

(Q) What would you report for `CC1(C)S[C@@H]2[C@H](NC(=O)[C@H](N)c3ccccc3)C(=O)N2[C@H]1C(=O)O` ?
(A) 0.5
